The entries below are paired with their reported CENMA Obs (observed value).
# System: CENMA
# test_protocol: Example V: postemergence herbicidal activity of mixtures in forage crops, CENMA
# Assay type: in vivo, Centaurea maculosa (spotted knapweed)
# condition_parameters: alone, 35 gae/ha, foliar, approximately 21 days
Structures can show the parent of a compound that is named as a salt.

>  <molecule>
Nc1c(Cl)c(Cl)nc(C(=O)[O-])c1Cl.[K+] [Picloram K^+ Salt]

>  <units_text>
%

>  <CENMA Obs (observed value)>
20

$$$$
>  <molecule>
CCCCOCCOC(=O)COc1nc(Cl)c(Cl)cc1Cl [Triclopyr Butotyl Ester, reference compound]

>  <units_text>
%

>  <CENMA Obs (observed value)>
30

$$$$
>  <molecule>
CCCCCCC(C)OC(=O)COc1nc(F)c(Cl)c(N)c1Cl (stereo not shown) [Fluroxypyr ME]

>  <units_text>
%

>  <CENMA Obs (observed value)>
0

$$$$
>  <molecule>
O=C(O)COc1ccc(Cl)cc1Cl [2,4-D DMA Salt, reference compound]

>  <units_text>
%

>  <CENMA Obs (observed value)>
30

$$$$
